Provenance of the data: ChEMBL document CHEMBL1124912

Target: Neutrophil elastase (Homo sapiens) (UniProt P08246)
Assay: Second-order rate constant for time-dependent inactivation of Human Leukocyte Elastase for 15 min
recorded.endpoint: k obs / 1 (M⁻¹ s⁻¹)

Observe how each entry below is paired with its result.
// k obs / 1 lookup, compound = CO[C@H]1C(=O)N2C(C(=O)OC(C)(C)C)=C(CCl)CS(=O)(=O)C12 (some centres not stated) , result: 14900

Entry under test: CO[C@H]1C(=O)N2C3=C(COC3=O)CS(=O)(=O)C12 (some centres not stated) . Its k obs / 1 was 46

The compound identified as CO[C@H]1C(=O)N2C(C(=O)OC(C)(C)C)=C(COC(=O)NCc3ccccc3)CS(=O)(=O)C12 (some centres not stated) registered its k obs / 1 at 15100

For record CO[C@H]1C(=O)N2C(C(=O)OC(C)(C)C)=C(COC(=O)C(C)(C)C)CS(=O)(=O)C12 (some centres not stated) the listed k obs / 1 is 15800

// k obs / 1 lookup, compound = C=CCC1=C(C(=O)OC(C)(C)C)N2C(=O)[C@H](OC)C2S(=O)(=O)C1 (some centres not stated) , result: 6100

Short answer for CO[C@H]1C(=O)N2C(C(=O)OC(C)(C)C)=C(CSc3nc[nH]n3)CS(=O)(=O)C12 (some centres not stated) : k obs / 1 was 3500

I. CO[C@H]1C(=O)N2C(C(=O)OC(C)(C)C)=C(CSc3nc(=O)c(=O)[nH]n3C)CS(=O)(=O)C12 (some centres not stated)
II. CO[C@H]1C(=O)N2C(C(=O)OC(C)(C)C)=C(COC(=O)c3ccccc3)CS(=O)(=O)C12 (some centres not stated)
[Q] Of the two listed items, I and II , which carries the larger k obs / 1 figure? Write down the label attached to your selection.
[A] II
(II: 32500 M⁻¹ s⁻¹, I: 8600 M⁻¹ s⁻¹)

P. CCOC(=S)SCC1=C(C(=O)OC(C)(C)C)N2C(=O)[C@H](OC)C2S(=O)(=O)C1 (some centres not stated)
Q. CO[C@H]1C(=O)N2C(C(=O)OC(C)(C)C)=C(CSc3nnnn3C)CS(=O)(=O)C12 (some centres not stated)
[Q] For the pair P and Q , which entry has the numerically smaller recorded k obs / 1? Selection: enter the item's label.
[A] P

###

Molecular target: Neutrophil elastase (Homo sapiens) (UniProt P08246)
Experiment: Second-order rate constant for time-dependent inactivation of HLE for 15 min
recorded.endpoint: k obs / 1 (M⁻¹ s⁻¹)

1. CO[C@H]1C(=O)N2C(C(=O)OC(C)(C)C)=C(COC(=O)CCC(=O)O)CS(=O)(=O)[C@H]12
2. CO[C@H]1C(=O)N2C(C(=O)OC(C)(C)C)=C(C)CS(=O)(=O)C12 (stereo partly specified)
3. CO[C@H]1C(=O)N2C(C(=O)OC(C)(C)C)=C(COC(=O)N[C@@H](Cc3ccccc3)C(=O)O)CS(=O)(=O)C12 (stereo partly specified)
[Q] Please put the 3 compounds above in a list ordered by falling k obs / 1. Form field (ranking): labels in requested order.
[A] 3, 1, 2

1. CO[C@H]1C(=O)N2C(C(=O)OC(C)(C)C)=C(COC(N)=O)CS(=O)(=O)C12 (stereo partly specified)
2. CO[C@H]1C(=O)N2C(C(=O)OC(C)(C)C)=C(C[S+]([O-])c3ccccc3)CS(=O)(=O)C12 (stereo partly specified)
[Q] Rank 1 against 2 by their k obs / 1 values and give the higher one. Refer to your chosen item by its label in the answer.
[A] 2

###

Molecular target: Neutrophil elastase (Homo sapiens, UniProt P08246)
Sequence (P08246 whole entry): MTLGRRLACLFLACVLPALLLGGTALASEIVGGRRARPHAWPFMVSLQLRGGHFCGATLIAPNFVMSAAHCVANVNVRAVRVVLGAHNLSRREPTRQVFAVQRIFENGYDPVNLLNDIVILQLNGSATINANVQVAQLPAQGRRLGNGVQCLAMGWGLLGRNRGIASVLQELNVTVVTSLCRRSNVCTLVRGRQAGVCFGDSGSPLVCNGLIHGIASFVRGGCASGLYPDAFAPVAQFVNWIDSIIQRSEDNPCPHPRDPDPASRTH
Assay: In vitro inhibitory activity against human leukocyte elastase (HLE)
pIC50: −log10 of the molar value.
recorded.endpoint: pIC50

Some entries whose results are on file:
Reported pIC50 for COCC1=C(C(=O)OC(C)(C)C)N2C(=O)[C@H](OC)C2S(=O)(=O)C1 (some centres not stated) was 6.00

The measured pIC50 associated with CO[C@H]1C(=O)N2C3=C(COC3=O)CS(=O)(=O)C12 (some centres not stated) reads 4.24

pIC50 reading for CO[C@H]1C(=O)N2C(C(=O)OC(C)(C)C)=C(C[S+]([O-])c3ccccc3)CS(=O)(=O)C12 (some centres not stated) : 6.04

So, CO[C@H]1C(=O)N2C(C(=O)OC(C)(C)C)=C(CSc3nnnn3C)CS(=O)(=O)C12 (some centres not stated) ? Its pIC50 was 5.79

response.value for CO[C@H]1C(=O)N2C(C(=O)OC(C)(C)C)=C(CSc3nnc(C)s3)CS(=O)(=O)C12 (some centres not stated) (field: pIC50) = 5.65

a. CCOC(=S)SCC1=C(C(=O)OC(C)(C)C)N2C(=O)[C@H](OC)C2S(=O)(=O)C1 (some centres not stated)
b. CO[C@H]1C(=O)N2C(C(=O)OC(C)(C)C)=C(COC(=O)N[C@@H](Cc3ccccc3)C(=O)O)CS(=O)(=O)C12 (some centres not stated)
c. CO[C@H]1C(=O)N2C(C(=O)OC(C)(C)C)=C(CSc3nc(=O)c(=O)[nH]n3C)CS(=O)(=O)C12 (some centres not stated)
[Q] Sort entries by pIC50 from minimum to maximum value. List the labels, following the order given in the request.
[A] a, c, b
(a: 5.74, c: 6.20, b: 6.89)

###

Target: Neutrophil elastase (Homo sapiens)
Assay: In vitro inhibitory activity against human leukocyte elastase (HLE)
recorded.endpoint: IC50 (nM)

In plain terms, CO[C@H]1C(=O)N2C(C(=O)OC(C)(C)C)=C(CS(=O)(=O)c3ccccc3)CS(=O)(=O)C12 (some centres undefined) has a documented IC50 of 440

The value of IC50 measured for the compound CO[C@H]1C(=O)N2C(C(=O)OC(C)(C)C)=C(CSc3nccn3C)CS(=O)(=O)C12 (some centres undefined) turned out to be 2330

1. CO[C@H]1C(=O)N2C(C(=O)OC(C)(C)C)=C(CSc3nnc[nH]3)CS(=O)(=O)C12 (some centres undefined)
2. CO[C@H]1C(=O)N2C(C(=O)OC(C)(C)C)=C(COC(C)=O)CS(=O)(=O)C12 (some centres undefined)
[Q] I need your help: which of the pair 1 , 2 has higher IC50? // return label of chosen record
[A] 1
